# Study System: T1, human Trop-2 expressed on cell surface (human, UniProt P09758 27-323)
# T1 sequence (looked up): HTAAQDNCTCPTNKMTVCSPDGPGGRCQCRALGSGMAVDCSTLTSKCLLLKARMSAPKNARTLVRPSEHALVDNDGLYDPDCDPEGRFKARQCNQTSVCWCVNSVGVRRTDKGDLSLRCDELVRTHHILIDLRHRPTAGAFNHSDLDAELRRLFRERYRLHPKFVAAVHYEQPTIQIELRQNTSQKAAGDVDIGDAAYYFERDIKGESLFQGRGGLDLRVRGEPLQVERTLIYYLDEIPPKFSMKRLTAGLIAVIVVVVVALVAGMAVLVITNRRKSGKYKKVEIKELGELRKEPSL
# Assay Method Text: cell-based or functional assay
Observed Property: Internalization %, MDA-MB-231, 0.25 µg/ml, 2 h (%)
Numeric only. Scale: %

Binder	U	Endpoint Value
66A1 (antibody, V domains shown, Rabbit-derived clone; LEM construct: VH + rabbit IgG CH1 + human IgG1 CH2-CH3) VH: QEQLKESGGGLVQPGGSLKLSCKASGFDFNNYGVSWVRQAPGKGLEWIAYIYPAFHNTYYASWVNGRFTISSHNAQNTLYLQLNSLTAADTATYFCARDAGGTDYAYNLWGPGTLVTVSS VL: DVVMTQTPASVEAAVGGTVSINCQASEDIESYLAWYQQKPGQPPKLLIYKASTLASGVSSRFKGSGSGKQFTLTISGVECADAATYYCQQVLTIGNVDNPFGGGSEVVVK	%	45
1D10 (antibody, V domains shown, Rabbit-derived clone; LEM construct: VH + rabbit IgG CH1 + human IgG1 CH2-CH3) VH: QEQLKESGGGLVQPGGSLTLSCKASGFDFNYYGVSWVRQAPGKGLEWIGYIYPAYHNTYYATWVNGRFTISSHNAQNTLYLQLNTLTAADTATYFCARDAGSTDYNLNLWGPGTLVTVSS VL: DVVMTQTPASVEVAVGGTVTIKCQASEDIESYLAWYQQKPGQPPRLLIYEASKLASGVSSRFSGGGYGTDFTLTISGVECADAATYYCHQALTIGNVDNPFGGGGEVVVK	%	46

Now, please, on to the next binder.
# Internalization %, MDA-MB-231, 0.25 µg/ml, 2 h (binder: 9D7-2 (antibody, V domains shown) VH: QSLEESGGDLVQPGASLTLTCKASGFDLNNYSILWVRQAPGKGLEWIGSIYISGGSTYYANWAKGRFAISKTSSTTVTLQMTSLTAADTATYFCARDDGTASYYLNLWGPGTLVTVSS VL: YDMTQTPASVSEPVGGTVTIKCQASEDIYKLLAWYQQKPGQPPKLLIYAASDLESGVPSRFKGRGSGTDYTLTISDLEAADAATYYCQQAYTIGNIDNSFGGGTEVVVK ) is 52
